# system.name: DNMT1 (purified, Active Motif) (UniProt P26358 1-1616)
# Sequence (P26358 whole entry): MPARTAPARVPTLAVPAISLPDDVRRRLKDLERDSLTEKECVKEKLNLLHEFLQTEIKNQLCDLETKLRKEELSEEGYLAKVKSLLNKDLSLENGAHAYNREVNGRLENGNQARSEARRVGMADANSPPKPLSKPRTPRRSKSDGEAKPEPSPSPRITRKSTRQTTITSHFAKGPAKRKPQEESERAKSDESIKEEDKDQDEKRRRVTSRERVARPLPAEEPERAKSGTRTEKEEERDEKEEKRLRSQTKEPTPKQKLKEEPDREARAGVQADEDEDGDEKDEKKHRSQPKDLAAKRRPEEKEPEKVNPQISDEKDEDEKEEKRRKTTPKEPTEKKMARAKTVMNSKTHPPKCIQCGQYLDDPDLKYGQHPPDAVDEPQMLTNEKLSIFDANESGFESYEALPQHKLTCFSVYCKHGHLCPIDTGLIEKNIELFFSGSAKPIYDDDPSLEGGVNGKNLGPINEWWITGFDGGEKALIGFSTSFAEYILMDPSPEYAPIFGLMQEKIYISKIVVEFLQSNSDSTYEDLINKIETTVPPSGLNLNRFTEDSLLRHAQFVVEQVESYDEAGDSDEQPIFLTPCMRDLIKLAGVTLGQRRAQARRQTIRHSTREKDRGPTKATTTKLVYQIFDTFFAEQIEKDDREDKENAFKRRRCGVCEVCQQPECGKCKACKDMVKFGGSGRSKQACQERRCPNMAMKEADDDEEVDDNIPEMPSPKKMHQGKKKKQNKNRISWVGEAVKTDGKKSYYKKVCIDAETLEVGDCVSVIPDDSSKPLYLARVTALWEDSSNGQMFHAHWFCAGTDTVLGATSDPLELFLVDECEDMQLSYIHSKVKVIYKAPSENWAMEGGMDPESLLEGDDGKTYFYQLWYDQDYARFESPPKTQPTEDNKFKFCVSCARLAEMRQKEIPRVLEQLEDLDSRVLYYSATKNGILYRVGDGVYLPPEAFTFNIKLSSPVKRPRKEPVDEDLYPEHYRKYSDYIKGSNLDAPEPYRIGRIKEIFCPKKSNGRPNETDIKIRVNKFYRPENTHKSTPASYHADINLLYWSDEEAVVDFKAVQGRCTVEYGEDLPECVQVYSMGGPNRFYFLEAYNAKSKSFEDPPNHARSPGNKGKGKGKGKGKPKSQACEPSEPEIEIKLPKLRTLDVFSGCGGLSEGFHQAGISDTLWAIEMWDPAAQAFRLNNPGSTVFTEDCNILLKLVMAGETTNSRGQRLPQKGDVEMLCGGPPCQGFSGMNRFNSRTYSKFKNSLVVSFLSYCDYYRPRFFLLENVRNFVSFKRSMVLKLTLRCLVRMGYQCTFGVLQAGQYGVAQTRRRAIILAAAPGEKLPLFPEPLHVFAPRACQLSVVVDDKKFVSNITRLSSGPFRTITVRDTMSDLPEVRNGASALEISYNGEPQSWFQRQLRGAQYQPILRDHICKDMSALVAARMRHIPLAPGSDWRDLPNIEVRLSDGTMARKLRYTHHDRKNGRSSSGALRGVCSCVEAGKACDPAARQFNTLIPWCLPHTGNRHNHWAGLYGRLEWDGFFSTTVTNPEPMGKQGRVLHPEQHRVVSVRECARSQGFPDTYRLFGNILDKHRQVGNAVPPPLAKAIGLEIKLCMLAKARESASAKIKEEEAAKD
# protocol.description: BLI; no binding detected below 100 nM RNA; BLI: AR2G tips, protein amine-coupled, assay buffer not fully stated (PBS pre-hydration); MST: 50 nM RED-tris-NTA labelled stock in 25 mM Hepes pH 7.5, 250 mM NaCl, 0.05% Tween 20 / PBS-T mix, 25 C; EMSA: 5 mM Tris pH 7.4, 5 mM MgCl2, 1 mM DTT, 3% glycerol, 100 mM NaCl, RT; ELONA: PBS, RT; pulldown: 10 mM Tris pH 7.5, 200 nM (so in the source) NaCl, 5 mM EDTA, 0.1% Triton X-100
# measurement.context: protein: commercial; hairpin (predicted)
experimental.endpoint: Kd (nM)
Lab book: enter the figure in nM, no units written.

input: For CUGAGGCCUUGGCGAGGCUUCU (structured_RNA, 2'-F pyrimidines (all C and U)) [DNMT1 bait (2'F-Py R5)] , what is its reported Kd?
output: 600
